Provenance of the data: patent US9365533B2

system: HFLS-OA cells; experiment: Suppressive action to TNF-α-induced proliferation of synovial cells (HFLS-OA), BrdU ELISA; assay type: cell-based; conditions: Synovial cell, 120 h; 200 μmol/L test substance; human recombinant TNF-α 10 ng/mL; 5 days; BrdU incorporation increase by TNF-α = 100%; read-out: Synovial Cell Proliferation Rate (%)
RECORDED METRIC: activity at 200 µM
Mention the unit after the number when you answer.

Ask: Report activity at 200 µM for `O=c1oc2c(OS(=O)(=O)c3ccc(Cl)cc3)cccc2cc1NS(=O)(=O)c1ccc(Cl)cc1`
Reply: -92.5%

Ask: Report activity at 200 µM for `Cc1cccc(S(=O)(=O)Nc2cc3cccc(OS(=O)(=O)c4cccc(C)c4)c3oc2=O)c1`
Reply: -84.9%

Ask: Report activity at 200 µM for `O=c1oc2c(OS(=O)(=O)c3cccc([N+](=O)[O-])c3)cccc2cc1NS(=O)(=O)c1cccc([N+](=O)[O-])c1`
Reply: -24.9%

Ask: Report activity at 200 µM for `O=c1oc2c(OS(=O)(=O)c3ccccc3)cccc2cc1NS(=O)(=O)c1ccc([N+](=O)[O-])cc1`
Reply: -39%

----------
test system: HFLS-OA cells; experiment: Suppressive action to TNF-α-induced proliferation of synovial cells (HFLS-OA), BrdU ELISA; type: cell-based; settings: Synovial cell, 120 h; 200 μmol/L test substance; human recombinant TNF-α 10 ng/mL; 5 days; BrdU incorporation increase by TNF-α = 100%; read-out: Synovial Cell Proliferation Rate (%)
Exam item: assign fulfilled to entries whose activity at 200 µM is below -40% and not fulfilled to entries at or above -40%. Note that a value of exactly -40% receives not fulfilled.

Ask: Here's an entry: `O=c1oc2c(OS(=O)(=O)c3cccc(Br)c3)cccc2cc1NS(=O)(=O)c1cccc(C(F)(F)F)c1` . Is its activity at 200 µM below -40%?
Reply: fulfilled

Ask: Here's an entry: `O=c1oc2c(OS(=O)(=O)c3ccccc3)cccc2cc1NS(=O)(=O)c1ccc(Cl)cc1` . Is its activity at 200 µM below -40%?
Reply: not fulfilled

Ask: Here's an entry: `N#Cc1ccc(S(=O)(=O)Oc2cccc3cc(NS(=O)(=O)c4ccccc4)c(=O)oc23)cc1` . Is its activity at 200 µM below -40%?
Reply: fulfilled

Ask: Here's an entry: `O=c1oc2c(OS(=O)(=O)c3ccccc3)cccc2cc1NS(=O)(=O)c1cccc(Br)c1` . Is its activity at 200 µM below -40%?
Reply: not fulfilled

Ask: Here's an entry: `COc1cccc(S(=O)(=O)Nc2cc3cccc(OS(=O)(=O)c4cccc(OC)c4)c3oc2=O)c1` . Is its activity at 200 µM below -40%?
Reply: fulfilled

Ask: Here's an entry: `O=c1oc2c(OS(=O)(=O)c3ccccc3F)cccc2cc1NS(=O)(=O)c1ccccc1F` . Is its activity at 200 µM below -40%?
Reply: fulfilled

Ask: Here's an entry: `O=c1oc2c(OS(=O)(=O)c3ccc(-c4ccccc4)cc3)cccc2cc1NS(=O)(=O)c1cccc(C(F)(F)F)c1` . Is its activity at 200 µM below -40%?
Reply: fulfilled

Ask: Here's an entry: `O=c1oc2c(OS(=O)(=O)c3ccccc3)cccc2cc1NS(=O)(=O)c1ccc(F)c(F)c1` . Is its activity at 200 µM below -40%?
Reply: not fulfilled

Ask: Here's an entry: `O=c1oc2c(OS(=O)(=O)c3cccs3)cccc2cc1NS(=O)(=O)c1cccc([N+](=O)[O-])c1` . Is its activity at 200 µM below -40%?
Reply: not fulfilled

Ask: Here's an entry: `O=c1oc2c(OS(=O)(=O)c3ccc(C(F)(F)F)cc3)cccc2cc1NS(=O)(=O)c1cccc(C(F)(F)F)c1` . Is its activity at 200 µM below -40%?
Reply: fulfilled

Ask: Here's an entry: `O=c1oc2c(OS(=O)(=O)c3cccc(Br)c3)cccc2cc1NS(=O)(=O)c1ccc(-c2ccccc2)cc1` . Is its activity at 200 µM below -40%?
Reply: not fulfilled

Ask: Here's an entry: `O=c1oc2c(OS(=O)(=O)c3cccc([N+](=O)[O-])c3)cccc2cc1NS(=O)(=O)c1cccc(Br)c1` . Is its activity at 200 µM below -40%?
Reply: fulfilled
